Origin of the recorded values: patent US20190070183A1

- Test system: PI3K-AKT-mTOR-eIF4F-Myc signal cascade in LY10 cells
- Conditions used: LY10, 24 h, PI3K inhibitors 3 μM, proteasome inhibitors 2 nM, single or combined
Quantity measured: inhibition of phosphorylation of 4EBP1

Form field: inhibition of phosphorylation of 4EBP1 recorded for CC(C)Oc1ccc(-c2nn([C@@H](C)c3oc4ccc(F)cc4c(=O)c3-c3cccc(F)c3)c3ncnc(N)c23)cc1F with PI3K-AKT-mTOR-eIF4F-Myc signal cascade in LY10 cells (enter value)
moderately inhibit

Also CC[C@H](Nc1ncnc2nc[nH]c12)c1nc2cccc(F)c2c(=O)n1-c1ccccc1 , if possible.
moderately inhibit
